Target: hErbB3.mmh (soluble monomeric human ErbB3 extracellular domain with C-terminal myc-myc-hexahistidine tag) (human, UniProt P21860 20-642)
Sequence (P21860 other isoform, or with tags, fused parts or gaps): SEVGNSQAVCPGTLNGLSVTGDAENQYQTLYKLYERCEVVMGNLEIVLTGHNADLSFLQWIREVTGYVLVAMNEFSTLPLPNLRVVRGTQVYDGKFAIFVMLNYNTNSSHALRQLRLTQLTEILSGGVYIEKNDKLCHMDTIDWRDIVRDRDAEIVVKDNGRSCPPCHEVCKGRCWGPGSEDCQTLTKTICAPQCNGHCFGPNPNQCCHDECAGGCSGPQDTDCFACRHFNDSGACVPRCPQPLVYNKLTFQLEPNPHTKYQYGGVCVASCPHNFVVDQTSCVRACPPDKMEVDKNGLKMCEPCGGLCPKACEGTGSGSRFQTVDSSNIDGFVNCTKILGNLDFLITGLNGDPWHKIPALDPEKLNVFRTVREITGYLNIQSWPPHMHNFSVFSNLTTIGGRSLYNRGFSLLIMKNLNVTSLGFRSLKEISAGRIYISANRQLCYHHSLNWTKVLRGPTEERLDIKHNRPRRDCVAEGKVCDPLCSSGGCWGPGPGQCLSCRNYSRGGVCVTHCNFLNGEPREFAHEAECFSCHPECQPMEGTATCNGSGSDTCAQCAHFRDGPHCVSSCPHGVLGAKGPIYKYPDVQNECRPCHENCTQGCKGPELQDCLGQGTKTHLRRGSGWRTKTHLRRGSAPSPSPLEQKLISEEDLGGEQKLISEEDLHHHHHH
Experiment: SPR (Biacore), 25 C, mAb capture format
pKd: −log10 of the molar value.
Entries annotated with measured pKd
Experimental endpoint: pKd

* H4H2108P (antibody, V domains shown, Fully human, human IgG4 Fc (H4H prefix)) VH: EVQLLESGGDLVQPGGSLRLSCATSGFSFSSDAMNWVRQAPGKGLEWVSGISGSGGNTYYADSVKGRFTISRDISKSTLSLQMNSLRAEDTAVYYCAKEGTNMVRGVVMEDNGMDVWGQGTTVTVSA VL: DIQMTQSPSSVSASVGDRVTITCRASQGISDYLAWYQQKPGKAPKLLIYAASSLQSGVPSRFSGRGSGTDFTLTISTLQPEDFATYYCQQANSFPLTFGGGTKVDIKR | 10.38
* H2M1829N (antibody, V domains shown, Hybridoma chimeric antibody: human variable domains, mouse IgG2 Fc (H2M prefix)) VH: EVQLVESGGGVVRPGGSLRLSCVASGFTFDDYGMSWVRQAPGKGLECVSGINWNGGSTDYADSVKGRFTISRDNAKNSLYLQMNSLRAEDTALYHCARDGGDWDYFDLWGRGTLVTVSS VL: EILMTQSPATLSVSPGERATLSCRASQSVSSNLAWYQQKPGQAPRLLIYGASTRATGIPARFSGSGSGTEFTLTISSLQSEDFAIYYCQEYNDWPLTFGGGTKVEIK | 9.55
* H4H2092P (antibody, V domains shown, Fully human, human IgG4 Fc (H4H prefix)) VH: EVQLVESGGGVVRPGGSLRLSCAASGFTFEDYGMNWVRQVPGKGLEWVSGTNWNGGITGYTGSVKGRFTISRDNAKNSLYLQMNSLRAEDTALYHCARDSGDQDAFDIWGQGTMVTVSS VL: DIQLTQSPSFLSASVGDRVTITCWASQDISSYLAWYQQKPGKAPKLLIYAASTFQSGVPSRFSGSGSGTEFTLTISNLQPEDFATYYCQQLDSYPLSFGGGTKVEIKR | 10.56
* H4H2148P (antibody, V domains shown, Fully human, human IgG4 Fc (H4H prefix)) VH: EVQLVESGGGLVHPGRSLRLSCAASGFTFDDYAMHWVRQSPGKGLEWVSGISWNSVIKHSTDSVRGRFTISRDNAKNSLYLQMNSLKPEDTAFYYCAKDEDDWNYLDYWGQGTLVTVSS VL: DIQMTQSPSSVSASVGDRVTITCRASQDINSWLAWYQQKPGKAPKLLIYTSSNLQSGVPSRFSGSGSGTDFTLTISSLQPEDFATYYCQQSDSFPFTFGPGTKVDIKR | 11.06
* H2M1827N (antibody, V domains shown, Hybridoma chimeric antibody: human variable domains, mouse IgG2 Fc (H2M prefix)) VH: EVQLVESGGGVVRPGGSLRLSCAASGFTFDDYGMSWVRQAPGKGLECVSGISWNGGNTDYADSVKGRFTISRDNAKNSLYLQMNSLRAEDTALYHCARDGGDWDYFDLWGRGTLVTVSS VL: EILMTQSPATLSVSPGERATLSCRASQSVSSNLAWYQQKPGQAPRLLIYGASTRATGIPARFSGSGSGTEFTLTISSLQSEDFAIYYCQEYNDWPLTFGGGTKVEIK | 9.39

meta.source: patent US20140072563A1
